MEASUREMENT_NOTES: RP, Agilent InfinityLab Poroshell 120 EC-C18, 100 × 3 mm, 2.7 µm, 25 °C, 0.4 mL/min, estimated dead time 1.1 min; A: water + 0.1% formic acid, pH 3; B: acetonitrile + 0.1% formic acid, pH 3; gradient (min/%B) 0/5 10/25 20/40 24/90 25/90 26/5 30/5
CONDITION_NOTES: stereoisomer not certain
OBSERVED_PROPERTY: LC retention time (min)

Dear colleague, I am looking for the recorded LC retention time of the following compound: Cn1cnc2c1c(=O)[nH]c(=O)n2C [Theobromine]
3.25

Dear colleague, I am looking for the recorded LC retention time of the following compound: O=C(O)C1OC(Oc2cc(O)cc(C=Cc3ccc(O)cc3)c2)C(O)C(O)C1O (centres undefined) [Resveratrol 3-O-glucuronide]
11

Dear colleague, I am looking for the recorded LC retention time of the following compound: O=c1oc2cc(O)ccc2c2ccccc12 [Urolithin B]
18.8

Dear colleague, I am looking for the recorded LC retention time of the following compound: O=c1cc(-c2ccc(O)cc2)oc2cc(O)cc(O)c12 [Apigenin]
16.3

Dear colleague, I am looking for the recorded LC retention time of the following compound: O=C(O)c1cc(O)c(O)c(O)c1 [Gallic acid]
2.36

Dear colleague, I am looking for the recorded LC retention time of the following compound: COc1ccc(C2CC(=O)c3c(O)cc(OS(=O)(=O)O)cc3O2)cc1O (centres undefined) [Hesperetin 7-sulfate]
12.6

Dear colleague, I am looking for the recorded LC retention time of the following compound: COc1cc(CC(=O)O)ccc1O [Homovanillic acid]
6.83

Dear colleague, I am looking for the recorded LC retention time of the following compound: O=C(O)CCc1ccc(O)cc1 [Phloretic acid]
7.93

Dear colleague, I am looking for the recorded LC retention time of the following compound: O=C(O)C1OC(Oc2ccc(C=Cc3cc(O)cc(O)c3)cc2)C(O)C(O)C1O (centres undefined) [Resveratrol 4-O-glucuronide]
9.05

Dear colleague, I am looking for the recorded LC retention time of the following compound: COc1cc(C(=O)O)ccc1O [Vanillic acid]
6.3

[P] O=C1CCC(Cc2ccc(O)c(OS(=O)(=O)O)c2)O1 (centres undefined)
[Q] COc1ccc(C2CC(=O)c3c(O)cc(O)cc3O2)cc1OS(=O)(=O)O (centres undefined) [Hesperetin 3'-O-sulfate]
Response body: label of entry with the larger LC retention time; valid values P , Q . Let me know the label of the one you choose.
Q

* * *

MEASUREMENT_NOTES: RP, Phenomenex Synergi Hydro-RP, 150 × 2 mm, 4 µm, 30 °C, 0.5 mL/min, estimated dead time 0.6 min; A: water + 0.1% formic acid, pH 3; B: acetonitrile + 0.1% formic acid, pH 3; gradient (min/%B) 0/5 1/5 35/45 40/100 45/100
CONDITION_NOTES: stereoisomer not certain
OBSERVED_PROPERTY: LC retention time (min)

// solved cases for LC retention time follow
Dear colleague, I am looking for the recorded LC retention time of the following compound: CC1OC(OC2C(O)C(OCCc3ccc(O)c(O)c3)OC(CO)C2OC(=O)C=Cc2ccc(O)c(O)c2)C(O)C(O)C1O (stereo unspecified) [Verbascoside]
15.8

Dear colleague, I am looking for the recorded LC retention time of the following compound: COc1c(O)cc(C(=O)O)cc1OS(=O)(=O)O [4-O-methylgallic acid 3-O-sulfate]
5.32

Dear colleague, I am looking for the recorded LC retention time of the following compound: Oc1cc(O)c2c(c1)OC1(c3ccc(O)c(O)c3)Oc3cc(O)c4c(c3C2C1O)OC(c1ccc(O)c(O)c1)C(O)C4 (stereo unspecified) [Procyanidin A2]
16

Dear colleague, I am looking for the recorded LC retention time of the following compound: O=C(O)C1OC(Oc2c(-c3ccc(O)cc3)oc3cc(O)cc(O)c3c2=O)C(O)C(O)C1O (stereo unspecified) [Kaempferol-3-O-glucuronide]
17.4

Dear colleague, I am looking for the recorded LC retention time of the following compound: Cn1cnc2c1c(=O)[nH]c(=O)n2C [theobromine]
4.64

[a] O=c1oc2cc(O)ccc2c2ccccc12 [urolithin B]
[b] C[N+]1(C)CCCC1C(=O)[O-] (stereo unspecified) [stachydrine (proline betaine)]
[c] O=S(=O)(O)Oc1c(O)cccc1O [Pyrogallol-2-O-sulfate]
[d] O=C(O)CCc1ccc(O)c(O)c1 [Dihydrocaffeic acid]
[e] OC1C(O)C(O)C(O)C(O)C1O (stereo unspecified) [myo-inositol]
Hey, quick one: sort these by LC retention time, largest value first please. Please list each label once, in the requested order.
a, d, e, c, b
(a: 28.6 min, d: 14.6 min, e: 8.53 min, c: 3.77 min, b: 0.844 min)

* * *

MEASUREMENT_NOTES: RP, Agilent InfinityLab Poroshell 120 EC-C18, 100 × 3 mm, 2.7 µm, 25 °C, 0.4 mL/min, estimated dead time 1.1 min; A: water + 0.1% formic acid, pH 3; B: acetonitrile + 0.1% formic acid, pH 3; gradient (min/%B) 0/5 10/25 20/40 24/90 25/90 26/5 30/5
CONDITION_NOTES: stereoisomer not certain
Where a name gives a salt, the structure may show the parent alone.
OBSERVED_PROPERTY: LC retention time (min)

Dear colleague, I am looking for the recorded LC retention time of the following compound: COc1ccc(-c2cc(=O)c3c(OC)c(OC)c(OC)c(OC)c3o2)cc1
22.8

Dear colleague, I am looking for the recorded LC retention time of the following compound: O=c1c(OS(=O)(=O)O)c(-c2ccc(O)c(O)c2)oc2cc(O)cc(O)c12 [Quercetin 3-O-sulfate]
12.6

Dear colleague, I am looking for the recorded LC retention time of the following compound: O=c1cc(-c2ccc(O)cc2)oc2cc(OC3OC(CO)C(O)C(O)C3O)cc(O)c12 (centres undefined) [Apigenin 7-O-glucoside]
10.7

Dear colleague, I am looking for the recorded LC retention time of the following compound: Oc1ccc(CCc2cc(O)cc(O)c2)cc1 [Dihydroresveratrol]
12.8

Dear colleague, I am looking for the recorded LC retention time of the following compound: O=c1oc2cc(OS(=O)(=O)O)ccc2c2ccccc12 [Urolithin B-3-sulfate]
12.7

Dear colleague, I am looking for the recorded LC retention time of the following compound: O=c1c(-c2ccc(O)cc2)coc2cc(OS(=O)(=O)O)ccc12 [Daidzein sulfate]
9.85

[P] O=c1cc(-c2ccccc2)oc2cc(O)cc(O)c12
[Q] O=c1oc2c(O)c(O)cc3c(=O)oc4c(O)c(O)cc1c4c23
[R] O=C(O)CNC(=O)c1ccccc1
Your job: order these 3 records by LC retention time, ascending. Please list each label once, in the requested order.
R, Q, P

* * *

MEASUREMENT_NOTES: RP, Agilent ZORBAX RRHD Eclipse Plus C18, 50 × 2.1 mm, 1.8 µm, 30 °C, 0.4 mL/min, estimated dead time 0.28 min; A: water + 0.1% formic acid, pH 3; B: acetonitrile + 0.1% formic acid, pH 3; gradient (min/%B) 0/1 5/10 8/25 9.1/99 10/99 12/1
CONDITION_NOTES: stereoisomer not certain
OBSERVED_PROPERTY: LC retention time (min)

Dear colleague, I am looking for the recorded LC retention time of the following compound: O=C(O)C=Cc1ccc(OC2OC(C(=O)O)C(O)C(O)C2O)cc1 (stereo not given) [p-Coumaric acid-4-O-glucuronide]
3.8

Dear colleague, I am looking for the recorded LC retention time of the following compound: O=C(O)c1cc(O)ccc1O
4.25

Dear colleague, I am looking for the recorded LC retention time of the following compound: O=C(O)C=Cc1ccccc1O
8.32

[A] O=C(O)C=Cc1ccc(OC2OC(C(=O)O)C(O)C(O)C2O)c(O)c1 (stereo not given) [Caffeic acid-4-glucuronide]
[B] O=c1c(O)c(-c2ccc(O)c(O)c2)oc2cc(O)cc(O)c12
Response body: label of entry with the larger LC retention time; valid values A , B . Let me know the label of the one you choose.
B
(B: 9.04 min, A: 3.98 min)

* * *

MEASUREMENT_NOTES: RP, Phenomenex Synergi Hydro-RP, 250 × 2 mm, 4 µm, 25 °C, 0.2 mL/min, estimated dead time 2.5 min; A: water + 0.1% formic acid, pH 3; B: acetonitrile + 0.1% formic acid, pH 3; gradient (min/%B) 0/0.5 7/0.5 12/12.5 25/16.3 47/35 48/65 50/65 50.1/0.5
CONDITION_NOTES: stereoisomer not certain
OBSERVED_PROPERTY: LC retention time (min)

Dear colleague, I am looking for the recorded LC retention time of the following compound: O=c1c(OC2OC(CO)C(O)C(O)C2O)c(-c2ccc(O)cc2)oc2cc(O)cc(O)c12 [Kaempferol 3-O-D-galactoside]
37.2

Dear colleague, I am looking for the recorded LC retention time of the following compound: O=C(O)c1cccc(O)c1 [3-Hydroxybenzoic acid]
22.7

Dear colleague, I am looking for the recorded LC retention time of the following compound: O=C(O)c1ccccc1 [Benzoic acid]
35.5

Dear colleague, I am looking for the recorded LC retention time of the following compound: O=C(O)c1cc(O)ccc1O [Gentisic acid]
19.9

Dear colleague, I am looking for the recorded LC retention time of the following compound: COc1cc(C(=O)O)cc(OC)c1O [Syringic acid]
23.1

Dear colleague, I am looking for the recorded LC retention time of the following compound: COc1cccc(C=CC(=O)O)c1 [3-methoxycinnamic acid]
49.1

[P] O=C(O)CC(O)(CC(=O)O)C(=O)O [Citric acid]
[Q] COc1cc(C(=O)O)ccc1O [Vanillic acid]
Response body: label of entry with the larger LC retention time; valid values P , Q . Let me know the label of the one you choose.
Q
(Q: 22.1 min, P: 6.32 min)
